- Tested on: IFN-γ
- protocol_details: IFN-γ levels in sera upon i.v. glycolipid administration to BALB/c mice (ELISA)
- Type: in vivo
- Parameters: unit not given here
- condition_description: BALB/c, serum, hour 2
observable: IFN-γ levels, test 1
Numbers only.

Sample answers from the record:
molecular_string	IFN-γ levels, test 1
CCCCCCCCCCCCCC[C@@H](O)[C@@H](O)[C@H](CC[C@H]1O[C@H](CO)[C@H](O)[C@H](O)[C@H]1O)NC(=O)CCCCCCCCCCCCCCCCCCCOCCCCC	118
CCCCCCCCCCCCCC[C@@H](O)[C@@H](O)[C@H](CC[C@H]1O[C@H](CO)[C@H](O)[C@H](O)[C@H]1O)NC(=O)CCCCCCCCCCCCCCCCCCCOCCCCCC	140

GET /value?item= CCCCCCCCCCCCCCCCCC/C=C/CCCCCCCCC(=O)N[C@@H](/C=C/[C@H]1O[C@H](CO)[C@H](O)[C@H](O)[C@H]1O)[C@H](O)[C@H](O)CCCCCCCCCCCCCC &field=IFN-γ levels, test 1 returns 373

* * *

- Test system: IFN-γ
- protocol_details: IFN-γ levels in sera upon i.v. glycolipid administration to C57BL/6 mice (ELISA)
- Type: in vivo
- Set-up: unit not given here
- condition_description: C57BL/6, serum, hour 72
Could you please report measured IFN-γ levels, test 1 for the items listed next?
Answers are plain numbers.

Need IFN-γ levels, test 1 for each of these molecules.
1. CCCCCCCCCCCCCCCCCC/C=C/CCCCCCCCC(=O)N[C@@H](/C=C/[C@H]1O[C@H](CO)[C@H](O)[C@H](O)[C@H]1O)[C@H](O)[C@H](O)CCCCCCCCCCCCCC [A-1]
2. CCCCCCCCCCCCCCCCCCCCCCCCCC(=O)N[C@@H](CC[C@H]1O[C@H](CO)[C@H](O)[C@H](O)[C@H]1O)[C@H](O)[C@H](O)CCCCCCCCCCCCCC [CRONY, reference compound]

Reply |
[124, 279]

GET /value?item= CCCCCCCCCCCCCC[C@@H](O)[C@@H](O)[C@H](CC[C@H]1O[C@H](CO)[C@H](O)[C@H](O)[C@H]1O)NC(=O)CCCCCCCCCCCCCCCCCCCOCCCCC [A-5] &field=IFN-γ levels, test 1 returns 101

* * *

- Tested on: IL-12
- protocol_details: IL-12 levels in sera upon i.v. glycolipid administration to BALB/c mice (ELISA)
- Format: in vivo
- Design: unit not given here
- condition_description: serum, hour 24
- Protocol: Five- to six-week-old female C57BL/6 mice and BALB/c mice were purchased from Taconic. Each glycolipid was stored at 1 mg/ml in 100% DMSO. […] At indicated time points, sera were collected from each animal, and concentrations of IFN-γ, IL-4, and IL-12 in the sera were evaluated by enzyme-linked immunosorbent assay (ELISA). Serum concentrations of IFN-γ, IL-4, and IL-12 were evaluated using an ELISA kit (eBioscience, San Diego, Calif.). […]
observable: IL-12 levels, average

Sample answers from the record:
compound	observable	experimental_result
CCCCCCCCCCCCCC[C@@H](O)[C@@H](O)[C@H](CC[C@H]1O[C@H](CO)[C@H](O)[C@H](O)[C@H]1O)NC(=O)CCCCCCCCCCCCCCCCCCCOCCCCCC [A-4]	IL-12 levels, average	333.5
CCCCCCCCCCCCCCCCCC/C=C/CCCCCCCCC(=O)N[C@@H](/C=C/[C@H]1O[C@H](CO)[C@H](O)[C@H](O)[C@H]1O)[C@H](O)[C@H](O)CCCCCCCCCCCCCC [A-1]	IL-12 levels, average	306
CCCCCCCCCCCCCCCCC/C=C/CCCCCCCCC(=O)N[C@@H](CC[C@H]1O[C@H](CO)[C@H](O)[C@H](O)[C@H]1O)[C@H](O)[C@H](O)CCCCCCCCCCCCCC [A-3]	IL-12 levels, average	161
CCCCCCCCCCCCCCCCCCCCCCCCCC(=O)N[C@@H](CO[C@H]1O[C@H](CO)[C@H](O)[C@H](O)[C@H]1O)[C@H](O)[C@H](O)CCCCCCCCCCCCCC [KRN, reference compound]	IL-12 levels, average	265.5
CCCCCCCCCCCCCCCCCCCCCCCCCCCCC(=O)N[C@@H](/C=C/[C@H]1O[C@H](CO)[C@H](O)[C@H](O)[C@H]1O)[C@H](O)[C@H](O)CCCCCCCCCCCCCC [A-2]	IL-12 levels, average	442.5

Need IL-12 levels, average for each of these compounds.
1. CCCCCCCCCCCCCC[C@@H](O)[C@@H](O)[C@H](CC[C@H]1O[C@H](CO)[C@H](O)[C@H](O)[C@H]1O)NC(=O)CCCCCCCCCCCCCCCCCCCOCCCCC [A-5]
2. CCCCCCCCCCCCCCCCCCCCCCCCCC(=O)N[C@@H](CC[C@H]1O[C@H](CO)[C@H](O)[C@H](O)[C@H]1O)[C@H](O)[C@H](O)CCCCCCCCCCCCCC [CRONY, reference compound]

Reply |
1: 141; 2: 210

* * *

- System: IL-4
- protocol_details: IL-4 levels in sera upon i.v. glycolipid administration to BALB/c mice (ELISA)
- Format: in vivo
- Design: unit not given here
- condition_description: hour 6
observable: IL-4 level, test 1

Sample answers from the record:
molecule	IL-4 level, test 1
CCCCCCCCCCCCCCCCC/C=C/CCCCCCCCC(=O)N[C@@H](CC[C@H]1O[C@H](CO)[C@H](O)[C@H](O)[C@H]1O)[C@H](O)[C@H](O)CCCCCCCCCCCCCC	56
CCCCCCCCCCCCCC[C@@H](O)[C@@H](O)[C@H](CC[C@H]1O[C@H](CO)[C@H](O)[C@H](O)[C@H]1O)NC(=O)CCCCCCCCCCCCCCCCCCCOCCCCC	60
CCCCCCCCCCCCCCCCCC/C=C/CCCCCCCCC(=O)N[C@@H](/C=C/[C@H]1O[C@H](CO)[C@H](O)[C@H](O)[C@H]1O)[C@H](O)[C@H](O)CCCCCCCCCCCCCC	85

Now consider the entry below.
GET /value?item= CCCCCCCCCCCCCCCCCCCCCCCCCC(=O)N[C@@H](CC[C@H]1O[C@H](CO)[C@H](O)[C@H](O)[C@H]1O)[C@H](O)[C@H](O)CCCCCCCCCCCCCC [CRONY, reference compound] &field=IL-4 level, test 1 returns 80

* * *

- Tested on: IL-12
- protocol_details: IL-12 levels in sera upon i.v. glycolipid administration to C57BL/6 mice (ELISA)
- Type: in vivo
- Set-up: unit not given here
- condition_description: C57BL/6, serum, hour 6
Criterion: IL-12 levels, average strictly under 700. Met: Criterion met. Not met: Criterion not met.

Ask | Lab note: confirm whether the reported IL-12 levels, average for this molecule is below 700, equality not counting. molecule: CCCCCCCCCCCCCCCCCCCCCCCCCC(=O)N[C@@H](CC[C@H]1O[C@H](CO)[C@H](O)[C@H](O)[C@H]1O)[C@H](O)[C@H](O)CCCCCCCCCCCCCC [CRONY, reference compound]
Reply | Criterion met

Ask | Lab note: confirm whether the reported IL-12 levels, average for this molecule is below 700, equality not counting. molecule: CCCCCCCCCCCCCCCCC/C=C/CCCCCCCCC(=O)N[C@@H](CC[C@H]1O[C@H](CO)[C@H](O)[C@H](O)[C@H]1O)[C@H](O)[C@H](O)CCCCCCCCCCCCCC
Reply | Criterion met

Ask | Lab note: confirm whether the reported IL-12 levels, average for this molecule is below 700, equality not counting. molecule: CCCCCCCCCCCCCCCCCCCCCCCCCCCCC(=O)N[C@@H](/C=C/[C@H]1O[C@H](CO)[C@H](O)[C@H](O)[C@H]1O)[C@H](O)[C@H](O)CCCCCCCCCCCCCC
Reply | Criterion not met

Ask | Lab note: confirm whether the reported IL-12 levels, average for this molecule is below 700, equality not counting. molecule: CCCCCCCCCCCCCC[C@@H](O)[C@@H](O)[C@H](CC[C@H]1O[C@H](CO)[C@H](O)[C@H](O)[C@H]1O)NC(=O)CCCCCCCCCCCCCCCCCCCOCCCCC
Reply | Criterion not met

Ask | Lab note: confirm whether the reported IL-12 levels, average for this molecule is below 700, equality not counting. molecule: CCCCCCCCCCCCCCCCCCCCCCCCCC(=O)N[C@@H](CO[C@H]1O[C@H](CO)[C@H](O)[C@H](O)[C@H]1O)[C@H](O)[C@H](O)CCCCCCCCCCCCCC [KRN, reference compound]
Reply | Criterion not met

Ask | Lab note: confirm whether the reported IL-12 levels, average for this molecule is below 700, equality not counting. molecule: CCCCCCCCCCCCCCCCCC/C=C/CCCCCCCCC(=O)N[C@@H](/C=C/[C@H]1O[C@H](CO)[C@H](O)[C@H](O)[C@H]1O)[C@H](O)[C@H](O)CCCCCCCCCCCCCC
Reply | Criterion not met
